test-description: NCI Yeast Anticancer Drug Screen. Data for the rad14 strain (AID 159);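 also: 0% = growth of vehicle-treated control cultures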
condition-parameters: S. cerevisiae rad14 strain growth inhibition; at 3.7 µM
Compounds without any hit were thinned out: in the full panel of roughly 79,000, 15% have a hit. Active and inactive are the calls of the source. Rule as the data show it: active = growth inhibition above about 70%; inactive = the rest.
Can you answer with just one of these options? TRUE (active), FALSE (inactive)

| compound | answer-label |
| --- | --- |
| CCCCC(CC)C(=O)Oc1ccc(C(=O)c2ccccc2)c(O)c1 (configuration not stated) | FALSE |
| N#C/C(=C/N1C(=O)/C(=C/c2ccc([N+](=O)[O-])cc2)SC1=S)c1nc2ccccc2s1 | FALSE |
| C/C(=N\NC(=S)NC1CCCC1)c1ccccn1 | TRUE |
| Cc1cc(C(C)(C)CC(C)(C)C)cc(O)c1O | FALSE |
| S=P(N1CC1)(N1CC1)N1CC1 | FALSE |

Could you check what this test reported for Clc1c(Cl)c(Cl)c2c(nnn2C2CCCO2)c1Cl (configuration not stated) ?
FALSE

Could you check what this test reported for CCOC(=O)C1=C(C)NC(C)=C(C(=O)OCC)C1c1ccccc1Cl ?
FALSE

Could you check what this test reported for OB(O)c1ccccc1C#Cc1ccccc1B(O)O ?
FALSE

Could you check what this test reported for c1ccc(N2N=C3N(c4ccccc4)C2N3c2ccccc2)cc1 ?
FALSE

Could you check what this test reported for Cc1cc(Cl)nc2nc(Cl)c(N)cc12 ?
FALSE

Could you check what this test reported for COc1ccc(N2C(=O)CC(Cl)C2=O)cc1 (configuration not stated) ?
FALSE

Could you check what this test reported for CN(C)CCNc1cccc2sc3ccc(O)cc3c(=O)c12 ?
FALSE

* * *

Here, each record is paired with measured growth inhibition data.
test-description: NCI Yeast Anticancer Drug Screen. Data for the rad50 strain (AID 155);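 also: 0% = growth of vehicle-only cultures of the same strain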
condition-parameters: S. cerevisiae rad50 strain growth inhibition; at 33.0 µM; active compounds read high
The panel holds about 79,000 compounds, 15% with a hit somewhere; the sample as a whole holds those more often. Active and inactive are the calls of the source. Rule as the data show it: active = growth inhibition above about 70%; inactive = the rest.

| compound | reported-endpoint | reported-measurement |
| --- | --- | --- |
| CCCCCCCCCCCCCCCCCCNC(=S)/N=C\C1=C(O)c2ccccc2C1=O | growth inhibition | 4% (inactive) |
| O=C1OC2C(O)COC2(OCc2c[nH]c3ccccc23)C1O (stereo not given) (tested in a mixture with another compound) | growth inhibition | 26% (inactive) |

Input O=C(NC(=S)Nc1ccccn1)c1ccccc1 . Output growth inhibition: -30% (inactive)

Input O=C(O)c1cccc2cccc(-c3c4ccc(=O)cc-4oc4cc(O)ccc34)c12 . Output growth inhibition: 79% (active)

Input CCOC(=O)C(NC(=O)CC)(N1CCN(c2cc3c(cc2F)c(=O)c(C(=O)O)cn3C2CC2)CC1)C(F)(F)F (stereo not given) . Output growth inhibition: 90% (active)

* * *

test-description: NCI Yeast Anticancer Drug Screen. Data for the mlh1 rad18 strain (AID 175)
condition-parameters: S. cerevisiae mlh1 rad18 strain growth inhibition; at 50.0 µM (retest, dose inferred, filed as 5.0)
This is part of a sample that, as a whole, favours compounds with a hit. Of some 79,000 tested, about 15% had one in any assay. Calls of active or inactive are those of the source. No stated cut-off is given here; in the data, active means growth inhibition above about 70%; inactive means the rest.
Can you answer with just one of these options? active, inactive

Recorded results for 8 molecules are shown here.
| molecule | answer-label |
| --- | --- |
| O=C(NC(=S)Nc1ccccn1)c1ccccc1 | active |
| O=C(Nc1cccc(C(F)(F)F)c1)Oc1ccc(Cl)cc1C(=O)c1ccccc1 | active |
| N#C/C(=C1C=C/C(=N/O)c2ccccc2/1)c1ccccc1 | active |
| O=[N+]([O-])c1cc(S(=O)(=O)Nc2ccccc2)ccc1Cl | active |
| NCc1c(O)ccc2ccccc12 | active |
| Cc1ccc2occ/c(=N\Nc3ccccc3)c2c1 | inactive |
| CC(=O)c1cc2c(Cl)cc(Cl)cc2oc1=O | active |
| CCCCOC(=O)CSSCC(=O)OCCCC | active |

Could you check what this test reported for CC1=CC2C(C(C)C)CC1C1C(=O)OC(=O)C21 (configuration not stated) ?
active

Could you check what this test reported for CCCCC(CC)C(=O)Oc1ccc(C(=O)c2ccccc2)c(O)c1 (configuration not stated) ?
active

Could you check what this test reported for COC(=O)c1oc([N+](=O)[O-])c(Cl)c1Cl ?
active

Could you check what this test reported for O=C1c2c(O)cccc2-c2nn(CCNCCO)c3ccc(NCCNCCO)c1c23 ?
inactive

* * *

test-description: NCI Yeast Anticancer Drug Screen. Data for the mlh1 strain (AID 171);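 also: 0% = growth of vehicle-treated control cultures of the same strain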
condition-parameters: S. cerevisiae mlh1 strain growth inhibition; at 1.2 µM; active compounds read high
The panel holds about 79,000 compounds, 15% with a hit somewhere; the sample as a whole holds those more often.
Here, each record is paired with measured growth inhibition data.
# unit: % | format: bare number

Solved cases below.
| molecule | display-unit | growth inhibition |
| --- | --- | --- |
| CC(=O)O[C@H]1C(=O)[C@@]2(C)[C@H]([C@H](OC(=O)c3ccccc3)[C@]3(O)C[C@H](OC(=O)[C@H](O)[C@@H](NC(=O)c4ccccc4)c4ccccc4)C(C)=C1C3(C)C)[C@]1(OC(C)=O)CO[C@@H]1C[C@@H]2O | % | -1 |
| CCC(C)(c1ccc(O)c(C)c1)c1ccc(O)c(C)c1 | % | -45 |
| O=C(/C=C/c1cccc(Br)c1)c1ccc(Cl)cc1 | % | -30 |
| CCCCCC(=O)c1ccc(O)cc1O | % | 7 |
| O=C1NC(c2c(Cl)cccc2Cl)Nc2ccccc21 (stereo not given) | % | -35 |
| Cc1cccc2c1N=C(C(F)(F)F)CC2=O | % | -1 |
| CCN(CC)CC(O)c1cc(-c2ccc(Cl)cc2)nc2c(-c3ccccc3)cccc12 (stereo not given) | % | -2 |
| CN(C)c1ccc(N=Nc2ccccn2)cc1 | % | 33 |

# next molecule below
Input OCCNCCOc1ccc(/C(=C(/Cl)c2ccccc2)c2ccccc2)cc1 . Output growth inhibition: 7

* * *

Here, each record is paired with measured growth inhibition data.
test-description: NCI Yeast Anticancer Drug Screen. Data for the sgs1 strain (AID 173);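 also: 0% = growth of vehicle-only control cultures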
condition-parameters: S. cerevisiae sgs1 mutant, at 3.7 µM, active compounds read high
The panel holds about 79,000 compounds, 15% with a hit somewhere; the sample as a whole holds those more often.
# unit: % | format: bare number

| compound | growth inhibition / % |
| --- | --- |
| N#C/C(=C/N1C(=O)/C(=C/c2ccc([N+](=O)[O-])cc2)SC1=S)c1nc2ccccc2s1 | 18 |
| CCOC(=O)[C@]1(Br)CC[C@@]1(Br)C(=O)OCC | -22 |
| C/C(=N\NC(=S)NC1CCCC1)c1ccccn1 | 79 |
| Cc1cc(C(C)(C)CC(C)(C)C)cc(O)c1O | 35 |
| Cc1cc(N=C2C=CC(=[N+](C)C)C=C2)c(N)cc1N | -25 |

# next compound below
Input Nc1nc(F)nc2c1ncn2C1OC(COP(=O)(O)O)C(O)C1O (stereo unspecified) . Output growth inhibition: 30

* * *

test-description: NCI Yeast Anticancer Drug Screen. Data for the bub3 strain (AID 167)
condition-parameters: S. cerevisiae bub3 mutant strain, at 1.2 µM, active compounds read high
Compounds without any hit were thinned out: in the full panel of roughly 79,000, 15% have a hit.
Here, each record is paired with measured growth inhibition data.
# unit: % | format: bare number

Solved cases below.
| compound | growth inhibition (%) |
| --- | --- |
| C=C1N(C)c2ccc(Cl)cc2C1(C)C | 18 |
| Cc1cc(Cl)ccc1NC(=O)/C(Cl)=C1/Sc2ccccc2NC1=O | -2 |
| CCN(CC)CC(O)c1cc(-c2ccc(Cl)cc2)nc2c(-c3ccccc3)cccc12 (stereo unspecified) | 1 |
| Oc1ccccc1N=Cc1ccc(Cl)cc1 | 33 |

Input O=C(O)c1cccc2cccc(-c3c4ccc(=O)cc-4oc4cc(O)ccc34)c12 . Output growth inhibition: 34

Input CCOC(=O)Nc1ccc2c(c1)Cc1ccccc1-2 . Output growth inhibition: 35

* * *

test-description: NCI Yeast Anticancer Drug Screen. Data for the sgs1 strain (AID 173);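 also: 0% = growth of vehicle-only control cultures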
condition-parameters: S. cerevisiae sgs1 mutant, at 3.7 µM, active compounds read high
About 79,000 compounds went through this panel and 15% of them were active in at least one assay; those are over-represented in the sample as a whole.
reported-endpoint: growth inhibition (%)
# unit: % | format: bare number

| compound-structure-string | display-unit | growth inhibition |
| --- | --- | --- |
| CCCCCCCCCCCc1nc(N)n[nH]1 | % | -13 |
| Cc1ccc(N=Nc2ccc(O)c(C)c2)cc1 | % | 26 |
| O=C(NC(=S)Nc1ccccn1)c1ccccc1 | % | -71 |
| C/C(=N\NC(=S)NNC(=S)N(C)c1ccccc1)c1ccccn1 | % | 64 |
| COC(=O)c1n[nH]c(C)c1N=NN(C)CCC#N | % | 70 |
| COC(=O)c1cccc(C)c1C(=O)c1c(C)cc(C)cc1C | % | 3 |

# next molecule below
Input C=C(C)[C@@H]1CCc2c(O)c(O)c(=O)cc(C)c2C1 . Output growth inhibition: 24

Every entry's value here was drawn from PubChem BioAssay (NCI).
